assay: Toxicity liver stage against HepG2, at 10uM; type: cell-based; design: test concentration 10 uM, cell line HepG2-A16-CD81EGFP; details: human, HepG2-A16-CD81EGFP cells; read-out: INHIBITION
METRIC: cytotoxicity at 10 µM

Cc1cc(NCc2ccc(CO)cc2)n2nc(C)cc2n1 ... -7.38%
CC(C)C1CN(C(=O)c2cc(=O)[nH]c(=O)[nH]2)CCCN1CC1CC1 (centres undefined) ... -2.42%
O=C(Nc1ccccn1)N(CCO)Cc1ccsc1 ... 2.12%
CC(C)CC(NC(=O)C1=CCCC1)C(=O)N1CCC(CO)CC1 (centres undefined) ... 8.23%
CC(C)C(=O)NCCc1cc2nc(-c3ccncc3)ccn2n1 ... 4.94%
CCOCCn1c(=O)n(Cc2ccc(F)cc2)c2ncc(C(=O)O)cc21 ... 0.902%
c1ccc(-n2ccc(CN3CCCC3Cn3cncn3)n2)cc1 (centres undefined) ... 0.665%
c1ccc(-c2nc3c(c(NCCCn4cncn4)n2)CCNCC3)nc1 ... -45.6%
CCS(=O)(=O)NCCNc1c(C#N)cnc2c(F)cc(F)cc12 ... 16.2%
O=C(Nc1cn[nH]c1)c1ccc(O)nc1 ... -1.09%
CCc1ncc(C(=O)N(C)CC2Cc3ccccc3O2)cn1 (centres undefined) ... -0.734%
CNc1ccc(C)cc1C(=O)N[C@H]1C[C@H]2CN(C)CCN2C1 ... -4.57%
Cc1nc(CN(C)C2CCN(Cc3ccc4c(c3)CCC4)C2)no1 (centres undefined) ... -18.2%
COc1ccc(CN(C)CC(=O)NC2(C)CCS(=O)(=O)C2)cc1F (centres undefined) ... 7.44%
Cc1noc(C)c1CC(=O)N1CCCN(C)c2ccc(Cl)cc21 ... 9.71%
Cc1cc(C2CCCN2Cc2nnc(-c3ccco3)o2)on1 (centres undefined) ... 8.92%
CCC(Nc1nc(C)nc2onc(C)c12)c1nc(C)c(C)s1 (centres undefined) ... 37.2%
CCCNC(=O)C(C)Nc1ccc(COCC)cc1 (centres undefined) ... 2.37%
c1cncc(OCc2noc3c2CN(Cc2ccoc2)CC3)c1 ... -8.33%
Cc1nc(N2CCCC2)nc2c1CCN(C(=O)N(C)C)CC2 ... 7.05%
Cc1ccc(CN(C)Cc2nc3c(cnn3C)c(=O)[nH]2)c(C)c1 ... 0.403%
COc1ccc(C(CNC(=O)c2c(C)noc2C)N(C)C)cc1 (centres undefined) ... -13.1%
Cc1nsc(N2CCCN(C(=O)CCc3ccsc3)CC2)n1 ... 3.8%
O=C(c1cccnc1-c1ccc2c(c1)OCCO2)N1CCCC1 ... 3.82%

All values here come from ChEMBL document CHEMBL4513216.
